assay: Next Generation Impactor (NGI) testing of pMDI prototype formulations; type: physicochemical; details: Formulation 3; Stages 3 to MOC

| Molecule | Fine Particle Dose, µg |
| --- | --- |
| C[N+]1(C)CCC(OC(=O)C(O)(c2ccccc2)C2CCCC2)C1 (stereo not shown) [Glycopyrronium, glycopyrronium, reference compound] | 8.3 |
| C=C(C)[C@@H]1CCC(C)=C[C@H]1c1c(O)cc(CCC)cc1O | 108.0 |
| C=C(C)[C@@H]1CCC(C)=C[C@H]1c1c(O)cc(CCCCC)cc1O [CBD, cannabidiol, reference compound] | 120.8 |
| CCCCCc1cc(O)c(C/C=C(\C)CCC=C(C)C)c(O)c1 | 127.5 |

---

Test: Total emitted dose of the APIs from pMDI prototype formulations, HPLC assay
Format: physicochemical
Parameters: unit not given here
Details: ED 8; pMDI Formulation 1-4
Description: An optimized HPLC assay method was developed for the assay of prototype formulations. The total emitted dose from APIs ED 1 to ED 8 was then analyzed using the HPLC Assay.
Quick reference for emitted dose among some molecules

| Molecule | emitted dose |
| --- | --- |
| CCCCCc1cc(O)c2c(c1)OC(C)(C)c1ccc(C)cc1-2 | 263.5 |
| C[N+]1(C)CCC(OC(=O)C(O)(c2ccccc2)C2CCCC2)C1 (stereo not drawn) [Glycopyrronium, glycopyrronium, reference compound] | 30.2 |
| CCCCCc1cc(O)c(C/C=C(\C)CCC=C(C)C)c(O)c1 | 332.1 |
| C=C(C)[C@@H]1CCC(C)=C[C@H]1c1c(O)cc(CCC)cc1O | 278.5 |
| CCCCCc1cc(O)c2c(c1)OC(C)(CCC=C(C)C)C=C2 (stereo not drawn) | 269.8 |
| C=C(C)[C@@H]1CCC(C)=C[C@H]1c1c(O)cc(CCCCC)cc1O [CBD, cannabidiol, reference compound] | 304.3 |

---

assay: Next Generation Impactor (NGI) testing of pMDI prototype formulations; type: physicochemical; conditions: Formulation 4
Readout name: MMAD (µm)

| Compound | Reported value |
| --- | --- |
| C=C(C)[C@@H]1CCC(C)=C[C@H]1c1c(O)cc(CCC)cc1O | 5.1 |
| CCCCCc1cc(O)c2c(c1)OC(C)(CCC=C(C)C)C=C2 (stereo not drawn) | 5.2 |
| C[N+]1(C)CCC(OC(=O)C(O)(c2ccccc2)C2CCCC2)C1 (stereo not drawn) [Glycopyrronium, glycopyrronium, reference compound] | 5.65 |
| CCCCCc1cc(O)c2c(c1)OC(C)(C)c1ccc(C)cc1-2 | 5 |
| CCCCCc1cc(O)c(C/C=C(\C)CCC=C(C)C)c(O)c1 | 5.25 |
| C=C(C)[C@@H]1CCC(C)=C[C@H]1c1c(O)cc(CCCCC)cc1O [CBD, cannabidiol, reference compound] | 4.75 |

---

test: Next Generation Impactor (NGI) testing of pMDI prototype formulations; format: physicochemical; details: Formulation 4; Stages 3 to MOC
Labelling: Fine Particle Dose reported below 70 µg becomes criterion met; at or above becomes criterion not met.

| Compound | Label |
| --- | --- |
| C=C(C)[C@@H]1CCC(C)=C[C@H]1c1c(O)cc(CCC)cc1O [CBDV, cannabidivarin] | criterion met |
| C=C(C)[C@@H]1CCC(C)=C[C@H]1c1c(O)cc(CCCCC)cc1O [CBD, cannabidiol, reference compound] | criterion not met |
| C[N+]1(C)CCC(OC(=O)C(O)(c2ccccc2)C2CCCC2)C1 (stereo not drawn) [Glycopyrronium, glycopyrronium, reference compound] | criterion met |
| CCCCCc1cc(O)c(C/C=C(\C)CCC=C(C)C)c(O)c1 [CBG, cannabigerol] | criterion met |
